# Tested on: Human alphaherpesvirus 2
# Assay protocol: Minimum inhibitory concentration required to reduce herpes simplex virus-2 (HSV-2 (G)) virus-induced cytopathicity by 50%
# Type: functional
Reported metric: MIC

[[record]]
chem_smiles = "C[Si](C)(C)C#Cc1ccc(-c2cn([C@H]3C[C@H](O)[C@@H](CO)O3)c(=O)[nH]c2=O)s1"
value = "> 40 µg/mL"


If you can, please state the reported MIC value of C=Cc1ccc(-c2cn([C@H]3C[C@H](O)[C@@H](CO)O3)c(=O)[nH]c2=O)s1 . > 200 µg/mL

Fill blank: measured MIC of the molecule C#Cc1ccc(-c2cn([C@H]3C[C@H](O)[C@@H](CO)O3)c(=O)[nH]c2=O)s1 is ____. > 200 µg/mL

Item under review: O=c1[nH]c(=O)n([C@H]2C[C@H](O)[C@@H](CO)O2)cc1-c1ccc(I)s1 . Reported MIC? > 40 µg/mL
